B1: tRNA (parent)
chain: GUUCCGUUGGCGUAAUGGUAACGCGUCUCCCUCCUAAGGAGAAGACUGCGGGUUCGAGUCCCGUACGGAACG

- Variants of: B1
- procedure.details: yeast fitness relative to wild type (ratio to wild type); higher = fitter; tRNA-Arg(CCU), competitive growth, 37 C, YPD
This sample holds only a part of the variants without activity.
Hi there, I'd appreciate the recorded yeast fitness for every entry that follows.
Numbers only.

Here's what some known entries look like.
### Prompt Entry "GUUCGGUUGGCGGAAUGGUAACGCGUCUCCCUCCUAAGGAGAAGACUGCGGGUUCGAGUCCCGUACGGAACG" has what yeast fitness?
### Response 0.703

### Prompt Entry "GUUCCGUAGGUGUAAUGGUAACGCGUCUCCCUCCUAUGGAGAAGACUGCGGGUUCGAGUCCCGAACGGAACG" has what yeast fitness?
### Response 0.545

### Prompt Entry "GUUCCGUUGGAGUAAUGGUAACGCGUGUCCAUCCUAAGGAGAAGACUGCGGGUUCGAGUCCCGUACGGAACG" has what yeast fitness?
### Response 0.543

### Prompt Entry "GUUCCGUUGCCGUAAUGGUAACGGGUCUCCCUCGUAAGGAGAAGACUGCGGGUGCGAGUCCCGUACGGAUCG" has what yeast fitness?
### Response 0.703

Please go through the list and note yeast fitness for each variant.
1. GUUCGGUUGGCGUAAUGGUAACGCGUCUCCGUCCUAAGGAGUAGACUGCGGGUUCGAGUCCCGUACGGAACG
2. GUUCCGUUGGCGUAAUGGUAACGCGUCCCCCUCCUAAGGGGAAGACUGCGGGUUCGAGUCCCGUACGGAUCG
3. GUUCCGUUGGCGUAAUGGUCACGCGUCUCCCUCCUAAGGAGUAGACUGCGGGUUCGAGUCCCGUACGGAACG
4. GUUCCGUUGGCGUAAUGGUAACGCGUCUCCCUCCUAUGGAGAAGACUGCAGGUUCGAGUCCCGUACGGUACG
5. GUUCCGUUGGCGUAAUGGUAACGCGUCUACCUCCUAAGGAGAAGACUGCGGGUUCGAGUCCCGUACGGUACG
6. GUUCCGUUGGCGUAAUGGUAACGCGUCUCGCUCCUAAGGAGAAGACUACGGGUUCGAGUCCCGUACGGAACG

### Response
1: 0.623; 2: 0.603; 3: 0.782; 4: 0.805; 5: 0.756; 6: 0.633

Please go through the list and note yeast fitness for each variant.
1. GUUCCGUUGGCGUAAUGGUAACGGGUCUCCUUCCUAAGGAGAAGACUGCGGGUUCGAGUCCCGUACGGAACG
2. GUUCCGUUGGCGUAAUGGUAACGCGUCUCCCUCCUAAGGAGAAGACUGUGGGUUUGAGUCCCGUACGGCACG
3. GUUCCGUUGGGGUAAUGGUAACGCGUCUCCCUCCAAAGGAGAAGACUGCGGGUUCGAGUCCCGUACGGAACG

### Response
1. 0.571
2. 0.665
3. 0.528

Please go through the list and note yeast fitness for each variant.
1. GUUCCGUUGGCGUAAUGGUAACGCGUCUUCCUCCUAAAGAGAAGACUGCGGGUUCGAGUCCCGUACGGAACG
2. GGUCCGUUGGCGUAAUGGUAACGCGUCCCCCUCCUAAGGAGAAGACUGCGGGUUCGAGUCCCGUACGGAACG
3. GUUCCAUUGGCGUAAUGGUAACGCGUCUCCCUCCUAAGGAGUAGACUGCGGGUUCGAGUCCAGUACGGAACG
4. GUUCCGUUGGCGUAAUAGUAACGCGUCUCCCUCCUACGGAGAAGACUGCGGGUUCGAGUCCCGUACGGCACG
5. GUUCCGUUGGCGUAAUGAUCACGCGUCUCCCUCUUUAGCAGAAGACUGCGGGUUCGAGUCCCGUACGGAACG
6. GUUCCGUUGGCGUGAUGGUAACGUGUCUCCCUCCUAAGGAGAAGACUGUGGGUUCGAGUCCCGUACGGAACG

### Response
[0.733, 0.825, 0.53, 0.648, 0.539, 0.675]

Please go through the list and note yeast fitness for each variant.
1. GUUGCCUUGGCGUAAUGGUAACGCGUCUCCCUCCUAAGCAGAAGACUGCGGGUUCGAGUCCCGUACGGAACG
2. GUUCCGUUGGCAGAAUGGUAACGCGUCUCCCUCCUAAGGAGAAGACUGCGGGUUCGAGUCCCGUACGGAACG

### Response
0.578
0.869

Please go through the list and note yeast fitness for each variant.
1. GUUCCGUUGGCGUAAUGGUAACGCGUCUCCCGCCUAAGGAGAAGACUGCGGGUUCGCGUCCUGUACGGAACG
2. GUUCCGUUGGCGUAAUGGUAACGCGUCUCUCUCCUAAGGAGAACACUGCGGGUUCGAGUCCCGUACGGAACG

### Response
1. 0.555
2. 0.662
